system: IGROV1 ovarian; test: NCI-60 one-dose screen, 48 h (100 = growth as untreated, 0 = no growth, -100 = all killed); conditions: 10 µM unless noted
The panel holds about 83,000 compounds, 20% with a hit somewhere; the sample as a whole holds those more often.
READOUT: growth (%)
Quick note: give the figure in %, leave out the unit.

COc1ccc(-c2n[nH]c(=O)c3nc(NC(=S)Nc4ccc(Oc5ccccc5)cc4)sc23)cc1 | 104
CC1CCN(C(=O)CCCl)c2ccccc21 (centres undefined) | 96.9
CCN1CCN(CC(=O)Nc2ccc(-c3cn4c(n3)sc3cc(Oc5ccnc(C(=O)NC)c5)ccc34)cc2)CC1 | 84.8
COc1ccc(-c2cc(-c3ccccc3)nc(N3CCN(CCNc4ccnc5cc(Cl)ccc45)CC3)n2)cc1 | -74
CC(C)(C)n1cc(-c2ccnc(NCCCNS(=O)(=O)c3cccc4ccccc34)c2)c(-c2cccc(F)c2)n1 | 78.9
Cn1ccc(=O)nc1 | 79
COc1ccc2cc(-c3ccnc4c(N=Nc5ccc(Cl)cc5)c(N)nn34)ccc2c1 | 102
COc1ccc(-c2nc(/C=C3\C(=O)N(C)c4ccccc43)c3ccccn23)cc1 | 69.7
Cc1nnc(-c2ccc3c(c2)nc(/C=C/c2ccccc2)n3C2CCCCC2)o1 | 77.1
Cc1ccc(C(=O)c2ccc(CC(=O)N=Nc3c(O)[nH]c4ccc(Br)cc34)n2C)cc1 | 77.5

Exam item: Entry `Cc1ccc(C(=O)Nc2cccc(C#Cc3cccc4[nH]nc(N)c34)c2)cc1C(F)(F)F` : reported growth = ?
Marked response: 17.9

Exam item: // repeat for `N#Cc1nc(-c2ccccc2)oc1S(=O)(=O)N1CCN(c2ccc(F)cc2)CC1` and report
Marked response: 45.6

Exam item: Same for `COc1ccc(/C(C)=C(\c2ccc(Cl)cc2)c2ccc(OCCN3CCCCC3)cc2)cc1`
Marked response: 64.5

Exam item: Next molecule: `COc1ccc(CNc2c3ccccc3nc3ccccc23)c(OC)c1`
Marked response: 22.4

---

Parameter growth: see the listing below.
tested on: MOLT-4 leukemia; assay: NCI-60 one-dose screen, 48 h (100 = growth as untreated, 0 = no growth, -100 = all killed); settings: 10 µM unless noted
About 83,000 compounds went through this panel and 20% of them were active in at least one assay; those are over-represented in the sample as a whole.
Write down the numeric answer in % and omit the unit.

Known results for molecules:
COc1ccc(/C=C(/C(=O)n2cnnn2)c2cc(OC)c(OC)c(OC)c2)cc1 | 40.5
COC(=O)c1ccc(NC(=O)Nc2ccc(C(=O)OC)cc2)cc1 | 79.9

Exam item: Look up growth for this molecule: `CCCCCCCC/C=C\CCCCCCCCOc1ccc(CC(=O)NCC[N+]2(C)CCOCC2)cc1`
Marked response: 79.9

---

Test system: SN12C renal
Test: NCI-60 one-dose screen, 48 h
Conditions: 10 µM unless noted
Procedure: Growth inhibition of the SN12C human tumor cell line is measured as a screen for anti-cancer activity. Cells are grown in 96 well plates and exposed to the test compound for 48 hours. Compounds are tested at a single concentration, which is 10^-5 M for most compounds. The reported endpoint is percent growth (GI% or GIPRCNT), where numbers from 0 - 100% represent growth inhibition, and numbers from -100% - 0 represent cell death. For example, a value of 40 represents 60% growth inhibition. […]
The panel holds about 83,000 compounds, 20% with a hit somewhere; the sample as a whole holds those more often. Calls of active or inactive are those of the source. Rule for the calls: active = growth percent below 10; inactive = the rest.
Your reply should match one of these outcome classes. yes (active), no (inactive)

See these solved cases before continuing.
COc1cccc(CNc2c3ccccc3nc3ccccc23)c1 | no
CC1(C)CC[C@]2(CO)CC[C@]3(C)[C@H](CC[C@@H]4[C@@]5(C)CCCNC(C)(C)[C@@H]5CC[C@]43C)[C@H]2[C@H]1O | no

Exam item: Assay outcome for `CCS/C(Nc1ccccc1)=C(\C#N)C(=O)Nc1ccc(OC)cc1` : what was it?
Marked response: no

Exam item: Now the compound `CCN1CCN(C(=O)[C@]23CC[C@@H](C)[C@H](C)[C@@H]2C2=CC[C@@H]4[C@@]5(C)C/C(=C/c6cccnc6)C(=O)C(C)(C)[C@@H]5CC[C@@]4(C)[C@]2(C)CC3)CC1`
Marked response: no

Exam item: Also, `O=C(N/N=C\c1ccccc1S(=O)(=O)O)N/N=C/c1ccccc1S(=O)(=O)O` please.
Marked response: no

Exam item: Quick one: `CC1=C(C(=O)Nc2nc(-c3ccc(Cl)cc3)cs2)[C@H](c2ccc(O)cc2)NC(=O)N1`
Marked response: no

Exam item: What would you report for `COc1ccc(/C=C/C(=O)c2cc(OC)c(OC)c(OC)c2)cc1OCC(=O)Nc1nc2ccc(OC(F)(F)F)cc2s1` ?
Marked response: no

Exam item: What would you report for `COc1ccc(/C(C)=C(\c2ccc(Cl)cc2)c2ccc(OCCN3CCCCC3)cc2)cc1` ?
Marked response: no
